- System: T-cell
- protocol-summary: Inhibition of ConA-induced mouse T lymphocytes proliferation after 48 hrs by CCK-8 assay
- Type: functional
Activity calls are given as the source filed them.
// one of active, inactive, no free text

Use the examples below as a reference point.
[[record]]
mol = "C[C@@H](O)/C=C/[C@@]1(O)[C@@H](C)C[C@H](O)CC1(C)C"
target_or_test_system = "T-cell"
qualitative_label = "active"

[[record]]
mol = "COC(=O)/C=C(C)\\C=C\\[C@@]1(O)C(C)=CC(=O)CC1(C)C"
target_or_test_system = "T-cell"
qualitative_label = "inactive"

[[record]]
mol = "C[C@H](O)/C=C/[C@@]1(O)[C@H](C)[C@H](O)[C@@H](O)CC1(C)C"
target_or_test_system = "T-cell"
qualitative_label = "active"

[[record]]
mol = "C[C@@H]1[C@H](O)[C@@H](O)CC(C)(C)[C@@]1(O)/C=C/[C@@H](C)O"
target_or_test_system = "T-cell"
qualitative_label = "active"


Task: What did the test return for C[C@H](O)CCC1=C(CO)C[C@@H](O)CC1(C)C ?
Result: active
